test system: Staphylococcus aureus; test: Antibacterial activity against inducibly macrolide/lincosamide/streptogramin B-resistant Staphylococcus aureus by agar microdilution method; type: functional
MIC: recorded values
Express the result in µg/mL but write the number alone.

Below: 2 compounds and their reported MIC.
CC[C@H]1OC(=O)[C@H](C)[C@@H](OC(=O)CCNCCNc2cc3c(=O)c(C(=O)O)cn(C4CC4)c3cc2Cl)[C@H](C)[C@@H](O[C@@H]2O[C@H](C)C[C@H](N(C)C)[C@H]2O)[C@](C)(OC/C=C/c2ccnc3ccccc23)C[C@@H](C)NC(=O)[C@H](C)[C@@H](O)[C@]1(C)O : 0.5
C=CCO[C@]1(C)C[C@@H](C)NC(=O)[C@H](C)[C@@H](O)[C@](C)(O)[C@@H](CC)OC(=O)[C@H](C)[C@@H](OC(=O)CCNCCNc2cc3c(=O)c(C(=O)O)cn(C4CC4)c3cc2Cl)[C@H](C)[C@H]1O[C@@H]1O[C@H](C)C[C@H](N(C)C)[C@H]1O : 0.25

Summary for this compound, C=CCO[C@]1(C)C[C@@H](C)NC(=O)[C@H](C)[C@@H](O)[C@](C)(O)[C@@H](CC)OC(=O)[C@H](C)[C@@H](OC(=O)CCNCCCc2ccccc2)[C@H](C)[C@H]1O[C@@H]1O[C@H](C)C[C@H](N(C)C)[C@H]1O : MIC is 4

Sample C=CCO[C@]1(C)C[C@@H](C)NC(=O)[C@H](C)[C@@H](O)[C@](C)(O)[C@@H](CC)OC(=O)[C@H](C)[C@@H](OC(=O)CCNC(C)C(=O)Nc2ccc3ncccc3c2)[C@H](C)[C@H]1O[C@@H]1O[C@H](C)C[C@H](N(C)C)[C@H]1O (stereo not given in full) ; MIC observed: 0.5

Notebook: CC[C@H]1OC(=O)[C@H](C)[C@@H](OC(=O)CCNCCNc2cc3c(=O)c(C(=O)O)cn(C4CC4)c3cc2Cl)[C@H](C)[C@@H](O[C@@H]2O[C@H](C)C[C@H](N(C)C)[C@H]2O)[C@](C)(OC/C=C/c2cccc3ncccc23)C[C@@H](C)NC(=O)[C@H](C)[C@@H](O)[C@]1(C)O , MIC read as 2

Recorded MIC (compound CC[C@H]1OC(=O)[C@H](C)[C@@H](OC(=O)CCNCCNc2cc3c(=O)c(C(=O)O)cn(C4CC4)c3cc2Cl)[C@H](C)[C@@H](O[C@@H]2O[C@H](C)C[C@H](N(C)C)[C@H]2O)[C@](C)(OC/C=C/c2cnc3ccccc3n2)C[C@@H](C)NC(=O)[C@H](C)[C@@H](O)[C@]1(C)O ): 1

Briefly, MIC measured for C=CCO[C@]1(C)C[C@@H](C)NC(=O)[C@H](C)[C@@H](O)[C@](C)(O)[C@@H](CC)OC(=O)[C@H](C)[C@@H](OC(=O)CCNC(C)Cc2ccccc2)[C@H](C)[C@H]1O[C@@H]1O[C@H](C)C[C@H](N(C)C)[C@H]1O (stereo not given in full) : 4

Record C=CCO[C@]1(C)C[C@@H](C)NC(=O)[C@H](C)[C@@H](O)[C@](C)(O)[C@@H](CC)OC(=O)[C@H](C)[C@@H](OC(=O)CCNC(C)Cc2ccc([N+](=O)[O-])cc2)[C@H](C)[C@H]1O[C@@H]1O[C@H](C)C[C@H](N(C)C)[C@H]1O (stereo not given in full) . Reported MIC: 1

For this compound ( CC[C@H]1OC(=O)[C@H](C)C(=O)[C@H](C)[C@@H](O[C@@H]2O[C@H](C)C[C@H](N(C)C)[C@H]2O)[C@](C)(OC)C[C@@H](C)C(=O)[C@H](C)[C@H]2N(CCCCn3cnc(-c4cccnc4)c3)C(=O)O[C@]12C ), measured MIC is 0.25
